B1: DCAF4 (parent)
chain: TTKCVRQYEGHVNEYAYLPLHVHE

# Variants of: B1
# experiment description: protein stability index of a GFP-peptide fusion (GPS, HEK-293T) (PSI 1-6); higher = more stable;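 further: lentivirally expressed fusions sorted by FACS into six bins by GFP to DsRed ratio, PSI derived from sequencing read proportions per bin multiplied by bin number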
# experimental conditions: c terminus: a fixed tail appended
Field: protein stability index. Provide a value for each of the variants that follow.

Example cases with answers are listed next.
TTKCVRQYEGHVNWYAYLPLHVHE [E14W] ... 1.14
TTKCVRQYEGHVNEYAYPPLHVHE [L18P] ... 2.75
TTKCVRQYEGHSNEYAYLPLHVHE [V12S] ... 2.78
TTKCCRQYEGHVNEYAYLPLHVHE [V5C] ... 2
TTKCVRQYEGHVNEYAYLPLHVIE [H23I] ... 3.56
NTKCVRQYEGHVNEYAYLPLHVHE [T1N] ... 2.4
TTKCVRQYETHVNEYAYLPLHVHE [G10T] ... 2.57
TTKCVRMYEGHVNEYAYLPLHVHE [Q7M] ... 2.19
TTKCVIQYEGHVNEYAYLPLHVHE [R6I] ... 2.11
TTKCVRQYEGHFNEYAYLPLHVHE [V12F] ... 2.11

# batch size: 8; output protein stability index per entry
1. TTKCVRHYEGHVNEYAYLPLHVHE [Q7H]
2. TTKCVRQYEGHVNEYAYLSLHVHE [P19S]
3. TTKCVRQYQGHVNEYAYLPLHVHE [E9Q]
4. TTKCVRQYEGHVNEYAYLPLHGHE [V22G]
5. TTKVVRQYEGHVNEYAYLPLHVHE [C4V]
6. TTKCVRQYEGHVNEYIYLPLHVHE [A16I]
7. TTKCVRQYEGHVAEYAYLPLHVHE [N13A]
8. TTKCVRQYEGHRNEYAYLPLHVHE [V12R]

[2.64, 1.46, 2.52, 2.13, 3.08, 2.2, 2.64, 2.6]

# batch size: 4; output protein stability index per entry
1. TTKCVRQYEGHVNEYMYLPLHVHE [A16M]
2. TTKCVRQYEGHVNEYAYLPLMVHE [H21M]
3. TTKCVRQYEGHVNEYAYLPLIVHE [H21I]
4. TTKCVRQYEGHVNEYAYLPLHVHT [E24T]

2.34
2.46
2.12
2.1
